- system-under-test: Histone deacetylase 11 (Homo sapiens)
- Sequence (Q96DB2 whole entry): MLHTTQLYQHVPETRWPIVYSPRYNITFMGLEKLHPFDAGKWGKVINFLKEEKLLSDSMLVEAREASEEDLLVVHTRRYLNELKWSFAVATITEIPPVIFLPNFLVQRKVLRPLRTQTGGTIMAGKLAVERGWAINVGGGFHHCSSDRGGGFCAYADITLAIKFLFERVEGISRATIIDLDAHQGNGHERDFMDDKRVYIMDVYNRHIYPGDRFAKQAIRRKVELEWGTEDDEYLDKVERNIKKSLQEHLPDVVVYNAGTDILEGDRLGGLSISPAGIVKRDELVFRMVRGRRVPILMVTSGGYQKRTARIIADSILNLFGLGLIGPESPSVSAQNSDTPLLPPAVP
- measurement-notes: Inhibition of human HDAC11 after 15 mins by trypsin-coupled fluorescence assay
value-kind: IC50 (µM)
Answers are plain numbers, in µM.

Query: Please give the measured IC50 for this compound: O=C(NO)c1ccc(CN(CCO)C(=O)Cc2ccccc2)cc1
Result: 3.7

* * *

- system-under-test: Histone deacetylase 2 (Homo sapiens)
- measurement-notes: Inhibition of HDAC2 (unknown origin)
Kindly state pIC50 for each of the entries shown.
Answers are plain numbers, as −log10 of the molar value.

smiles-notation	pIC50
Cc1nc2ccccc2n1Cc1ccc(C(=O)NO)cc1F	4.69

Please examine the following record next.
Query: Requested field: pIC50. Item: O=C(NO)c1ccc(CN2c3ccccc3S(=O)(=O)C[C@H]3CCCC[C@H]32)cc1
Result: 4.62

* * *

- system-under-test: Histone deacetylase 5 (Homo sapiens)
- Sequence (Q9UQL6 whole entry): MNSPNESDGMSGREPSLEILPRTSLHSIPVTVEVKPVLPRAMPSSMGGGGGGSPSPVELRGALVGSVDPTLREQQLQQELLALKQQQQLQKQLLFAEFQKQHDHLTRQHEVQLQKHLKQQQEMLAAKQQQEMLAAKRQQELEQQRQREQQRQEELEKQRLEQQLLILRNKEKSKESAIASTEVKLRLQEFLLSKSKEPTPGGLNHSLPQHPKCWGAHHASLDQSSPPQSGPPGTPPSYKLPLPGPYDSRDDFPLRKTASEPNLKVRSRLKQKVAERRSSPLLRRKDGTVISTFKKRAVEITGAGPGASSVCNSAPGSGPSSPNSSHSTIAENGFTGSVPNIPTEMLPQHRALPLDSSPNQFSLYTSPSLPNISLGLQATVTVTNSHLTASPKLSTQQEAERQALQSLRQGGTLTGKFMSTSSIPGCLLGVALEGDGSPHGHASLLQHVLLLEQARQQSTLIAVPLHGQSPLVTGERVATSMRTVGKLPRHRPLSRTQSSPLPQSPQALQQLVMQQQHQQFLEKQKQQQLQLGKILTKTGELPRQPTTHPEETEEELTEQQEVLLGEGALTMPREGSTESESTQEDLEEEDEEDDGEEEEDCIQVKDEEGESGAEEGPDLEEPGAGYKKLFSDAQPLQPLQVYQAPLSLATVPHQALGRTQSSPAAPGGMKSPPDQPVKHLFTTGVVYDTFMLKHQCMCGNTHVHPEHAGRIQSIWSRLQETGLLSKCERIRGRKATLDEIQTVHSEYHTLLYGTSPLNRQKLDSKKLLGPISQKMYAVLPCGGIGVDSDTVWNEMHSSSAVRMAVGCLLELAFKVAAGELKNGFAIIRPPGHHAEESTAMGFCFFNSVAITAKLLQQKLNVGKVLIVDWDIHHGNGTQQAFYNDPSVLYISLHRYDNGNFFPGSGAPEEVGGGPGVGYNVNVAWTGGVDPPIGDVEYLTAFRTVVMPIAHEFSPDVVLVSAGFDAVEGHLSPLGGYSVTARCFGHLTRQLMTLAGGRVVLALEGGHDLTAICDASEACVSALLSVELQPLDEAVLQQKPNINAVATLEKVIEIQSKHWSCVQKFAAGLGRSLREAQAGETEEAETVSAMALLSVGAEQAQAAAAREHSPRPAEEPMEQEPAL
- measurement-notes: Inhibition of human HDAC5 after 15 mins by trypsin-coupled fluorescence assay
value-kind: pIC50
Numbers only, as −log10 of the molar value.

Query: Look up pIC50: O=C(NO)c1ccc(CN(CCO)C(=O)Cc2ccccc2)cc1
Result: 5.02

* * *

- system-under-test: Histone deacetylase 8 (Homo sapiens, UniProt Q9BY41)
- Sequence (Q9BY41 whole entry): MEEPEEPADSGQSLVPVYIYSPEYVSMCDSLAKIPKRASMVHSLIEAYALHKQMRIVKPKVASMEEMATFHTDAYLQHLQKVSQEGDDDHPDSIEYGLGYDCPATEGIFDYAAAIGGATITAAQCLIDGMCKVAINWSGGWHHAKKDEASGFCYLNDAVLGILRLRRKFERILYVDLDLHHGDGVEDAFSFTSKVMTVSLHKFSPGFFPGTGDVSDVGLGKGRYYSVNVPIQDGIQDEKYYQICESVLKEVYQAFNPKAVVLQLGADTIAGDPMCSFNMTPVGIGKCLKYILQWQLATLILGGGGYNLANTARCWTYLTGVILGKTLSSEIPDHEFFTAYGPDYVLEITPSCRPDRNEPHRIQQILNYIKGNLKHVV
- measurement-notes: Inhibition of human HDAC8 using RHKKAc as substrate by fluorescence assay
value-kind: pIC50
Numbers only, as −log10 of the molar value.

Query: What does the record list as pIC50 for CN1C(=O)C2CN(Cc3c2c2ccccc2n3Cc2ccc(C(=O)NO)cc2)C1=O (stereo unspecified) ?
Result: 6.60

* * *

- system-under-test: Histone deacetylase 3 (Homo sapiens)
- measurement-notes: Inhibition of C-terminal His-tagged full length human HDAC3 expressed in baculovirus expression system using AMC-labeled RHKKAc as substrate after 2 hrs by fluorescence assay
value-kind: pIC50
Numbers only, as −log10 of the molar value.

Query: What value of measured pIC50 is listed for COc1ccc(-c2cc(-c3ccoc3)c(C(=O)NCc3ccc(C(=O)NO)cc3)[nH]2)cc1 ?
Result: 7.10

* * *

- system-under-test: Histone deacetylase 1 (Homo sapiens)
- Sequence (Q13547 whole entry): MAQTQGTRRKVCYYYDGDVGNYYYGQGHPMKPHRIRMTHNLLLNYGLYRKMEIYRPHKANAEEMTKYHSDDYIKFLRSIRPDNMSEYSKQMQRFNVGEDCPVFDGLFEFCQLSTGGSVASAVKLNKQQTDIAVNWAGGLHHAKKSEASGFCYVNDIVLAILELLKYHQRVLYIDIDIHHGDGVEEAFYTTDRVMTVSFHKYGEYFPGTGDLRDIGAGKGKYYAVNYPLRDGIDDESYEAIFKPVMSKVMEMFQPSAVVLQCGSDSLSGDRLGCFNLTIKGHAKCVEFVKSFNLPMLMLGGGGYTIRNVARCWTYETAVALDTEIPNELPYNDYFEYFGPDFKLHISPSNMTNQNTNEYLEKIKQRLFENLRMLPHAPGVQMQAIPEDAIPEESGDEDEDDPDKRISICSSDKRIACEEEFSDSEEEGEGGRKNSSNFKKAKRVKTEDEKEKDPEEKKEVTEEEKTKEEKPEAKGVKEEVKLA
- measurement-notes: Inhibition of human HDAC1 after 15 mins by trypsin-coupled fluorescence assay
value-kind: pIC50
Answers are plain numbers, as −log10 of the molar value.

Query: Request: pIC50, test system Histone deacetylase 1 (Homo sapiens), entry O=C(NO)c1ccc(CN(CCO)C(=O)Cc2ccccc2)cc1
Result: 6.10

* * *

- system-under-test: UniProt:Q9UKV0
- measurement-notes: Inhibition of human HDAC9 after 15 mins by trypsin-coupled fluorescence assay
value-kind: IC50

Query: Fill in the blank: the reported IC50 of O=C(NO)c1ccc(CN(CCO)C(=O)Cc2ccccc2)cc1 is ____.
Result: 5.3 µM

* * *

- system-under-test: Histone deacetylase 7 (Homo sapiens, UniProt Q8WUI4)
- measurement-notes: Inhibition of human HDAC7 after 15 mins by trypsin-coupled fluorescence assay
value-kind: IC50 (nM)
One number for each entry, in nM.

Query: Record O=C(NO)c1ccc(CN(CCO)C(=O)Cc2ccccc2)cc1 : what is its IC50 with Histone deacetylase 7 (Homo sapiens, UniProt Q8WUI4)?
Result: 1100

* * *

- system-under-test: Histone deacetylase 7 (Homo sapiens, UniProt Q8WUI4)
- measurement-notes: Inhibition of HDAC7 (unknown origin)
pIC50: −log10 of the molar value.
value-kind: pIC50

Query: Requested field: pIC50. Item: O=C(NO)c1ccc(NCc2csc3ccc(Br)cc23)cc1
Result: < 5.00

* * *

- system-under-test: Histone deacetylase 5 (Homo sapiens)
- measurement-notes: Inhibition of HDAC5 (unknown origin)
Would you mind telling me the reported IC50 of each entry?
Numbers only, in nM.

smiles-notation	value-kind	result-number
Cc1nc2ccccc2n1Cc1ccc(C(=O)NO)cc1F	IC50	200

Consider the following items and state reported IC50 for each.
1. O=C(NO)c1ccc(Cn2c3c(c4ccccc42)S(=O)(=O)CC3)cc1
2. O=C(NO)c1ccc(CN2c3ccccc3S(=O)(=O)C[C@H]3CCCC[C@H]32)cc1

Result:
[400, 9100]

* * *

- system-under-test: Histone deacetylase 1 (Homo sapiens)
- measurement-notes: Inhibition of HDAC1 (unknown origin) by fluorescence assay
value-kind: IC50

Query: Consider the compound shown here: O=C(NO)c1cccc(-c2csc(CSc3ccccc3)n2)c1 What is its recorded IC50?
Result: > 100 µM

* * *

- system-under-test: Histone deacetylase 2 (Homo sapiens, UniProt Q92769)
- Sequence (Q92769 whole entry): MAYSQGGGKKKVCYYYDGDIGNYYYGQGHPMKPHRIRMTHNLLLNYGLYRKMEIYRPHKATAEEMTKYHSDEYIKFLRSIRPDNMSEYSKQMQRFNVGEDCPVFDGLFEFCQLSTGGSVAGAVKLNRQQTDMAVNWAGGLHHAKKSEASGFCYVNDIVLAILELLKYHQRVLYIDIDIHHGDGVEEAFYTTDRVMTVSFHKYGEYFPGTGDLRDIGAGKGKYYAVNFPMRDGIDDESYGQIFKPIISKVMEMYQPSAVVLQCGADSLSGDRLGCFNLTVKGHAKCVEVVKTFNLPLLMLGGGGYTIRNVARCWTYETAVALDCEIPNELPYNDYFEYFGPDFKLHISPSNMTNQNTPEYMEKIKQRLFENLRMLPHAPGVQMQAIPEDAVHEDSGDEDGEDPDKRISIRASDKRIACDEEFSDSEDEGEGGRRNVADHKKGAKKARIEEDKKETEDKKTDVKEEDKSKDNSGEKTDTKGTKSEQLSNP
- measurement-notes: Inhibition of human HDAC2 after 15 mins by trypsin-coupled fluorescence assay
value-kind: pIC50
Answers are plain numbers, as −log10 of the molar value.

smiles-notation	system-under-test	pIC50
O=C(NO)c1ccc(CN(CCO)C(=O)Cc2ccccc2)cc1	Histone deacetylase 2 (Homo sapiens, UniProt Q92769)	5.66

Now examine the next entry.
Query: Any idea what its pIC50 is? The molecule is O=C(NO)c1ccc(CC(=O)N(CCO)c2ccccc2)cc1
Result: 5.36

* * *

- system-under-test: Histone deacetylase 4 (Homo sapiens, UniProt P56524)
- measurement-notes: Inhibition of HDAC4 (unknown origin) by fluorescence assay
value-kind: IC50

Query: Dear colleague, I am looking for the recorded IC50 of the following compound: O=C(NO)c1cccc(-c2csc(CSc3ccccc3)n2)c1
Result: > 100 µM

* * *

- system-under-test: Histone deacetylase 8 (Homo sapiens, UniProt Q9BY41)
- measurement-notes: Inhibition of HDAC8 (unknown origin) by fluorescence assay
value-kind: pIC50
One number for each entry, as −log10 of the molar value.

Query: Would you mind telling me what pIC50 value was observed for O=C(NO)c1cccc(-c2csc(CSc3ccccc3)n2)c1 ?
Result: 6.82

* * *

Would you mind telling me the reported IC50 of each entry?
- system-under-test: Histone deacetylase 1 (Homo sapiens)
- measurement-notes: Inhibition of HDAC1 (unknown origin)
Numbers only, in µM.

Known results for compounds:
smiles-notation	readout-units	IC50
O=C(/C=C/c1cccc(C(=O)NO)c1)NO	µM	0.01
O=C(NO)c1ccc(CN2c3ccccc3S(=O)(=O)C[C@H]3CCCC[C@H]32)cc1	µM	8.1

Query: Return IC50 measured with Histone deacetylase 1 (Homo sapiens) given this compound: O=C(NO)c1ccc(Cn2c3c(c4ccccc42)S(=O)(=O)CC3)cc1
Result: 12

* * *

For each record, write down the corresponding IC50.
- system-under-test: Histone deacetylase 9 (Homo sapiens)
- Sequence (Q9UKV0 whole entry): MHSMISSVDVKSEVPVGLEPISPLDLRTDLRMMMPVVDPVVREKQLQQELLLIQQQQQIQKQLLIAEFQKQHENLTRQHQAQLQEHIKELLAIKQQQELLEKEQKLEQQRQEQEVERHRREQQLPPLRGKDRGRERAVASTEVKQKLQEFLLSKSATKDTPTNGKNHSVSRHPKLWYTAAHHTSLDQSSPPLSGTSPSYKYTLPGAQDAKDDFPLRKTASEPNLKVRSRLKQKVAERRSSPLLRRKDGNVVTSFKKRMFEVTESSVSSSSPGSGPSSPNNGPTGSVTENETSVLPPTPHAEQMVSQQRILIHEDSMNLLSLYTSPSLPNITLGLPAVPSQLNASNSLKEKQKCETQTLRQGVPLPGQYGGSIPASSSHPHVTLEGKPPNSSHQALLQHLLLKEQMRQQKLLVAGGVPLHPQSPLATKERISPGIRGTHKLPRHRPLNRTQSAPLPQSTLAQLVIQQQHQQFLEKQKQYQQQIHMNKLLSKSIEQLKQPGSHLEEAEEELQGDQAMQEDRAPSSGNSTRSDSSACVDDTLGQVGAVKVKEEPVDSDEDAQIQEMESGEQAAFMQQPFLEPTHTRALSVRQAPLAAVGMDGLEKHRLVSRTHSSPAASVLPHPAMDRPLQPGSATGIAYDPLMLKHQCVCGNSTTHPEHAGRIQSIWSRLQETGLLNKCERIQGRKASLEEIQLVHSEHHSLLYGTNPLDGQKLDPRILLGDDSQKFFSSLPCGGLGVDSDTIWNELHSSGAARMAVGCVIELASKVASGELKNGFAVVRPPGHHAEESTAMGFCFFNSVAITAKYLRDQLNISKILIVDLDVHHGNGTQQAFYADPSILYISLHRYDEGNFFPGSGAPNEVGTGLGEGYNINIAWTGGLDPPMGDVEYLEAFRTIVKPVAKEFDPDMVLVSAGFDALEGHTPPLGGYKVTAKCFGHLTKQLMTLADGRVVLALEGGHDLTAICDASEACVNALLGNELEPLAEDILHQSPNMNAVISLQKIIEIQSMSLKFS
- measurement-notes: Inhibition of HDAC9 (unknown origin)
Numbers only, in µM.

smiles-notation	readout-units	result-number
O=C(NO)c1ccc(Cn2c3c(c4ccccc42)S(=O)(=O)CC3)cc1	µM	0.2

Query: Which IC50 value belongs to O=C(NO)c1ccc(CN2c3ccccc3S(=O)(=O)C[C@H]3CCCC[C@H]32)cc1 ?
Result: 13

* * *

Give measured pIC50 for each item. Keep answers brief.
- system-under-test: Polyamine deacetylase HDAC10 (Homo sapiens, UniProt Q969S8)
- Sequence (Q969S8 whole entry): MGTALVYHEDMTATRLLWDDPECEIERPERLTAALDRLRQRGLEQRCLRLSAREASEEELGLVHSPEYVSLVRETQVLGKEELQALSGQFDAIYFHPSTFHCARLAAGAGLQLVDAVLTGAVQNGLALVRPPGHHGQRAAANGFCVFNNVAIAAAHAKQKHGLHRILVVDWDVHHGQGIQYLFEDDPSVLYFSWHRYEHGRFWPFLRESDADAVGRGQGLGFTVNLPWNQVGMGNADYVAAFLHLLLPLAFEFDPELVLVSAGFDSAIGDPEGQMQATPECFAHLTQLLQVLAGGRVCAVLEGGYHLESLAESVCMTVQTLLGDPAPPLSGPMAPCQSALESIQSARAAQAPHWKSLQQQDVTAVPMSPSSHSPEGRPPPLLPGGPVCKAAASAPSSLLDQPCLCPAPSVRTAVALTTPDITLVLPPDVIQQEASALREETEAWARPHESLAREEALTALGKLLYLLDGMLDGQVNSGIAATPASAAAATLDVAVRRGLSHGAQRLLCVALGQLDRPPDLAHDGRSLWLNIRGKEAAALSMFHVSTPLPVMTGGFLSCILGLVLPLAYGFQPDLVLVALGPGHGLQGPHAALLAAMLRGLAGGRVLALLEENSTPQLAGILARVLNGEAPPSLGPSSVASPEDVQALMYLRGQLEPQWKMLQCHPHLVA
- measurement-notes: Inhibition of HDAC10 (unknown origin)
Numbers only, as −log10 of the molar value.

smiles-notation	value-kind	result-number
O=C(NO)c1ccc(CN2c3ccccc3S(=O)(=O)C[C@H]3CCCC[C@H]32)cc1	pIC50	5.00
O=C(NO)c1ccc(Cn2c3c(c4ccccc42)S(=O)(=O)CC3)cc1	pIC50	4.89

We now examine a further compound.
Query: Looking for the measured pIC50 of Cc1nc2ccccc2n1Cc1ccc(C(=O)NO)cc1F , can you help?
Result: 4.69

* * *

- system-under-test: Histone deacetylase 3 (Homo sapiens, UniProt O15379)
- Sequence (O15379 whole entry): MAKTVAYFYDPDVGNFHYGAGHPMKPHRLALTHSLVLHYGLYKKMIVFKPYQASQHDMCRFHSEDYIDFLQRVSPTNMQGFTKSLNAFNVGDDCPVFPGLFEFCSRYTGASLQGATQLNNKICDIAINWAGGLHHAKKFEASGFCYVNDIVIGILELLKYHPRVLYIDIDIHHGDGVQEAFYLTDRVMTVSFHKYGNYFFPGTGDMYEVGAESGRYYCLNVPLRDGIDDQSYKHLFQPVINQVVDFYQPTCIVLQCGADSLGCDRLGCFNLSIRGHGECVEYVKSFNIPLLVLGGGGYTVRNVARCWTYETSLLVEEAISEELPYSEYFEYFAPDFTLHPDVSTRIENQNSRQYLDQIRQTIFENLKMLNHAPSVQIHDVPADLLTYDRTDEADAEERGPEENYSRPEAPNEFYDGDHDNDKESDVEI
- measurement-notes: Inhibition of HDAC3 (unknown origin)
value-kind: IC50 (µM)
One number for each entry, in µM.

Recorded IC50, per entry:
smiles-notation	value-kind	result-number
Cc1nc2ccccc2n1Cc1ccc(C(=O)NO)cc1F	IC50	12.5
O=C(NO)c1ccc(CN2c3ccccc3S(=O)(=O)C[C@H]3CCCC[C@H]32)cc1	IC50	24

Please examine the following record next.
Query: Look up IC50 for this molecule: O=C(/C=C/c1cccc(C(=O)NO)c1)NO
Result: 0.07

* * *

- system-under-test: Protein deacetylase HDAC6 (Homo sapiens)
- measurement-notes: Inhibition of recombinant N-terminal GST-tagged full length human HDAC6 expressed in baculovirus expression system in Sf9 insect cells using AMC-labeled RHKKAc as substrate by fluorescence method
value-kind: IC50

Query: For the record Cc1noc(C)c1-c1ccnc(N(Cc2ccc(C(=O)NO)cc2)c2cnccn2)c1 , what value of IC50 is listed for Protein deacetylase HDAC6 (Homo sapiens)?
Result: ≤ 500 nM

Measured values drawn from ChEMBL document CHEMBL4033665 for this set.
